# Assay comment: soluble fraction after stress (log2 fold change); higher = more stays soluble; pooled small domains, quantitative proteomics;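 further: 20 min heating vs room temperature control held 20 min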
# Protocol conditions: stress: 75 degC
Attribute measured: soluble fraction (log2)
API note: the answer field is a bare number with no unit suffix.

Below, each entry is followed by its recorded soluble fraction (log2) result.
1) HMDDTPLNNVIKKIAALPENITLADKSAVLSAWEAYQALSVNLKAQVSNSELLIKAYETILQLEGEDQIK
0.437
2) HMGAISGEQREFYTVFRGHLNSHVGEFKVEDIENLLMKAKTEVPDLLEEEFLKMGEAILNRYRN
0.0818
3) HMGSIDYLVGSRLRQYRRLRGYSLIEFSAMLHRSKSAISKYERGEVSIDLRTLNEMARLLDIPLSGLLL
-4.56

Attention now turns to another entry.
q: Value lookup for soluble fraction (log2); key = "HMDEKSGWLHLAPHEGALRAALYAEHAVQEERTAPDGSQWLRLVLREKHYHQIQSKYNRRLTLHTQPDPS"
a: -2.58

====

# maps each entry to its soluble fraction (log2)
# Assay comment: soluble fraction after stress (log2 fold change); higher = more stays soluble; pooled small domains, quantitative proteomics
# Protocol conditions: stress: 75 degC

Below, each entry is followed by its recorded soluble fraction (log2) result.
1) HMKELTYSDFRKAYPDIQGNLFGMAERYITALDWTEVAAKVETDEELRKERDIFYLVKTYIRKYVQ
-1.86
2) HMSAPQKWDGSLQDFIRFKQEAKTLMDNIPNKRLALNAILETISDGKMRKRLAKYDGPESALKSLELEFGN
-0.1
3) HMDEVLDQFVRGQIYGYIRANPGDIYSSIRDNLGLKNGVTTYHLDVLAREEYVYSEIDGTNRRFYPSGWEE
-2.77

q: Value lookup for soluble fraction (log2); key = "HMENPLETYYSQWVSAIKREHPEASFVKDTDGKYYVEGLTKNRLAVIYENPHLVRLVNATTNLHVE"
a: -0.567

q: Field entry: "HMEPEAKIDFILKAAQKRLGLYGYEKTTMQEIAADINMSKAALYYYFPDKESLFKAVVENEQEEYFH"
a: -1.97

q: Field entry: "HMAFDYETYQLTSREFSIIELVADGRSNREIAEALYLGEGTVRNYLSSILEKLELRDRTQLAVFFYQHL"
a: -2.3

q: Field entry: "HMRAEELEQFVERLKNEVMNNFPLKELSDNELREKIENLVEIRLANVYVSIEQRVAIAEQIYSSIR"
a: -1.1

====

# Assay comment: soluble fraction after stress (log2 fold change); higher = more stays soluble; pooled small domains, quantitative proteomics
# Protocol conditions: stress: 75 degC
Attribute measured: soluble fraction (log2)

1) HMLNAPFGFRIEDDTLIPIPEEAKVVRQIFRYYLQGMGFGKIAQELNGQDVPGKPWGKERIKYILSNEKYI
-2.47
2) HMDVNSRIRQFLKKMKITVQTFESSIGKTNGYIAHTKSPTAGVLAEIAKVYPDLNLDWLITGEGEMLKN
-1.42
3) HMLWTDTKYVTVPDFVGKEPKEIESSYLYNIEYHGEGTKVISQQPAAFSRTIEGGTVRLYLG
-0.0387

q: Value lookup for soluble fraction (log2); key = "HMVEYIENINLSEKQKFIAHEILKEIRGRAIFLRDVGLDYLNLSRKAGTLSGGEAQRIRLATQIGSA"
a: 0.198

q: Field entry: "HMPAERLSMRKIYEILRLKYGHGLSNREVALSVSVSRSTVADYLLRAQAAGLSWPLPDGLDETGLEQRLFP"
a: -3.96

q: Field entry: "HMTEDIAVRILEFLEDNNGFYALNDKTPSEKIHDLFGVSKKKFKIALGGLYKQRLITVSDAGVTLVK"
a: -1.67

====

# maps each entry to its soluble fraction (log2)
# Assay comment: soluble fraction after stress (log2 fold change); higher = more stays soluble; pooled small domains, quantitative proteomics
# Protocol conditions: stress: 75 degC
API note: the answer field is a bare number with no unit suffix.

1. HMRLPQEVWEKIRAAYEAHGLSFSELAEMYGVNKSNISRRAKAEGWNQAETQRLITATVENE
0.374
2. HMNNLSEELNVTFPRTRDQLLNILHYVQHKYGYISKVSMQEIGNHIKMPVSEIYGTVTSYSEFKI
-2.25
3. HMQAVDPLELRAGDFVVHEQHGIGRYVEMVQRTIGGITREYLVIEYAPAKRGQPNDRVFVPTDTLEQVS
-0.654
4. HMHVLNEEYYNRIKAIQFTMNHDDGNSLNDIEKSDIILLGVSRTSKTPTSIYLANRGLRTSNIPLINEK
-0.655
5. HMDALKAVYQWVTRTMMKNQTGVMQTLPNRDLIELNTQITAQRLMQAGVDPTTLKNANQVENAVNIIESR
-0.69

q: Value lookup for soluble fraction (log2); key = "HMFSGVQLGQAISEAIKRKNVSQKEVADHFGVKQPSVSGWIKNGRIDKKHLDKLIDYFSDVVTPSHFGIE"
a: 0.27

q: Field entry: "HMEHLTATERHLVAYLEAHLGQVPSLSITKLSQEANVSTASIVRTMKKLGYDGFTAFKHAIKQQLR"
a: -2.67

====

# Assay comment: soluble fraction after stress (log2 fold change); higher = more stays soluble; pooled small domains, quantitative proteomics
# Protocol conditions: stress: 75 degC
# maps each entry to its soluble fraction (log2)
API note: the answer field is a bare number with no unit suffix.

Below, each entry is followed by its recorded soluble fraction (log2) result.
1) HMETTVSYSGVVTASVLRIRKGPSVSSSVAGTLKKGTGVSIIFEDNGWGKLADGSGWVSLTYIKKNSTP
-2.33
2) HMIKITLGWVISVRRHDLGYTQHKMARAVGISDLTVSRIESDDGITPDNNTLRKIAEYLKIDYNSLLTLK
-1.37

Attention now turns to another entry.
q: Value lookup for soluble fraction (log2); key = "HMTEKIVFNIDGQTGRIDKILADFMTGTSRSQIQAWVKDGNLMVNDKAVKSNYKVQDGDLLELTIPEPEQ"
a: -0.284

====

# maps each entry to its soluble fraction (log2)
# Assay comment: soluble fraction after stress (log2 fold change); higher = more stays soluble; pooled small domains, quantitative proteomics
# Protocol conditions: stress: 75 degC
API note: the answer field is a bare number with no unit suffix.

q: Value lookup for soluble fraction (log2); key = "HMSMLSQERQSLILDIIKEQGSVTVTRLTEILQSSESTVRRDLSYLASKGKINKVHGGATALG"
a: -0.39

q: Field entry: "HMEQKISVPALVGRDIEEILADTEVTGNFTIKEADKRVASNRPVGEVLEQDPGTGESAVKGTIITVTVSAG"
a: -0.0542

q: Field entry: "HMSGDKKLQMNLILEFAQQNESFRTKDIEELLQIRSSRARKLISDLVTEGRLEALGENRNRRYQLI"
a: -1.05

====

# Assay comment: soluble fraction after stress (log2 fold change); higher = more stays soluble; pooled small domains, quantitative proteomics
# Protocol conditions: stress: 75 degC
Attribute measured: soluble fraction (log2)
API note: the answer field is a bare number with no unit suffix.

Below, each entry is followed by its recorded soluble fraction (log2) result.
1) HMADGDIIPEGQRDATLASLAGSMRARGMTEAEILAALQVTNETRVRPPMALADLERIARSIGRYEPGK
0.0569
2) HMHLTRYLHTMIRAANLDDTLDFFVEKLGLIEAYRYSNEAGRFTLVFLSAPDDLESAQSRQAPLVEITYN
-1.32
3) HMDTMINLIGLNLKKAKKELSNLGVNVKKVRYKKSSVYDEGVVIDQSIEAGRNIKNGDFITITVSSGKA
-0.473
4) HMALQDKYAELLTAANTMGVTNLAVAEKDGTLHVSGTAKSTADYDSLWALYDKIDPNMASGDLMMNI
0.36
5) HMTDLQNDIQAFNLKKMSYQHETKKLEEKRNPEKLEKLEQDIQALYLRIMENPNMRAFDSAKQALYLQIM
-0.948

q: Value lookup for soluble fraction (log2); key = "HMIKNKDRIQYTLAHRKAFRKIEKELLGYNTFRSLFHDLDKVFLYPFFDYKKVHNFHRNHAHH"
a: 0.132

q: Field entry: "HMSLAVFLQGLLEEKQLKKADVIRRTGMEPTYGYHIFDGHKKHPARSKVLLLALAMGLTVKEAQHLLYYAG"
a: -0.423

q: Field entry: "HMFTLDDLQATYDIFERAEQNSDAMLAFQKVITAEGLDFDLTSPQGIVDFFKGAAPTEIYDLYEAS"
a: -0.547

q: Field entry: "HMGIAEGSSVFVRVLAAEDGGRYTVSFAGRRFSVLSRQALGIGSAFRADVKVEKGQVLLVPR"
a: -2.95

q: Field entry: "HMSTPENLGGRNTAKARISWLENGVKQELESDFPAAEVVKLSSRFGGEVPELTVIRPSLEDIYLKMIG"
a: -0.00898

q: Field entry: "HMIGPYAAAKLMTNKDFVKWLSGGVEKSVFNPNSFGQHIRRLVQISEVNPDIRDEINAVVQGLTQ"
a: -0.445

q: Field entry: "HMISTVFYVDVKGEVHHPGVYQMKAENRVKDLIEAAGGFTPLADDQKLNLAQLLEDQMVIVVPKKGEEV"
a: 0.243

q: Field entry: "HMAQPIPSGADIRAAREAAGMTLRRFAEYIAGPDFSTWSRYETGKPIRVKNISPEVWQRVRKFIAQNKG"
a: -0.33

q: Field entry: "HMFDFNNLSSLSDVELSVYRFVVNNPEKVAYMRVRDIAQKTHVANSSVMRFVHKIGFASFPEFKAYLKNIN"
a: -0.997

q: Field entry: "HMLTKSELVFDTLKKRIIDGELEPGTELVISRISEEFNVSTIPVREAIKTLASEGLVEMEPHKSAKVAE"
a: -0.0052
